Target: Lytic switch protein BZLF1 (Epstein-Barr virus (strain B95-8)) (UniProt P03206)
Sequence (P03206 whole entry, looked up): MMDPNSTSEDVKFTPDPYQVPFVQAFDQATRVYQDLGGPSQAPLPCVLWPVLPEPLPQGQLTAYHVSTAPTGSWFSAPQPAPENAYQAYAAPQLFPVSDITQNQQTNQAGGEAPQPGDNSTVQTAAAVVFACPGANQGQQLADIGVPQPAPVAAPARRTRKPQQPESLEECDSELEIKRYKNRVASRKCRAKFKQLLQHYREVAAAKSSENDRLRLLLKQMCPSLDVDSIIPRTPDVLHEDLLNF
Assay: Zta-DNA interaction blockers, Epstein-Barr virus – biochemical, fluorescence polarization, single concentration, counter-screen for EBNA-1 inhibitor project, primary screen (AID 2234)
Conditions: ZTA-DNA binding, at 11 µM, stronger effect = higher value
The whole screen tested about 320,000 compounds, of which about 480 (0.15%) were called active. The sample holds actives, similar compounds and a random draw of the others, so the mix is not that of the screen.
Answer each item with its documented inhibition.
// return numeric value only (unit: %, not printed)

[ask] Which inhibition is reported for this molecule? CCN1C(=O)C(=O)N(CC(=O)Nc2cc(C)ccc2C)C1=O
[reply] 9.39

[ask] Which inhibition is reported for this molecule? Cn1c(N)c(C(=O)COC(=O)/C=C/c2ccc(OC(F)F)cc2)c(=O)n(C)c1=O
[reply] 4.46

[ask] Which inhibition is reported for this molecule? CC(NC(=S)NNS(=O)(=O)c1ccc(C(C)(C)C)cc1)c1ccccc1 (configuration not stated)
[reply] -5.57

[ask] Which inhibition is reported for this molecule? Cc1ccccc1CSc1nnc(-c2ccccn2)n1N
[reply] -11.1

[ask] Which inhibition is reported for this molecule? CC(C)Oc1ccc(CN2CCC(n3nccc3NC(=O)c3cccnc3)CC2)cc1
[reply] 6.96

[ask] Which inhibition is reported for this molecule? CCc1c(C)nc(N)n2c(SCC(=O)NC3CCCCC3)nnc12
[reply] -21.8

[ask] Which inhibition is reported for this molecule? Cc1cccc(-n2cnc(C(=O)Nc3cccnc3)c2)n1
[reply] -4.78

[ask] Which inhibition is reported for this molecule? Cc1cc(/C=C2\SC(=Nc3ccc(N4CCOCC4)cc3)N(C)C2=O)c(C)n1-c1cccnc1
[reply] -10.5

[ask] Which inhibition is reported for this molecule? O=C(N/N=C/c1cccc2cccnc12)[C@H]1C[C@@H]1c1ccccc1
[reply] -1.05

[ask] Which inhibition is reported for this molecule? CC(=O)c1c(C)[nH]c(C(=O)OCC(=O)Nc2c(C)cccc2C)c1C
[reply] 3.88

[ask] Which inhibition is reported for this molecule? CCSc1sc(CC)cc1C=O
[reply] 3.38

[ask] Which inhibition is reported for this molecule? Cc1ccc(C2CC(c3cccc(NS(C)(=O)=O)c3)=NN2S(C)(=O)=O)cc1 (configuration not stated)
[reply] 0.89

[ask] Which inhibition is reported for this molecule? Cc1cc(C(=O)OC(C)C(=O)NC2CCCCC2C)c(C)o1 (configuration not stated)
[reply] -3.44

[ask] Which inhibition is reported for this molecule? C#CCOCCOCCOCCNc1nc(N2CCN(C(=O)CCCCCCCCCCNC(=O)[C@H](CCCCN)n3cc(C)nn3)CC2)nc(N2CCN(C(=O)CCCCCCCCCCNC(=O)[C@H](CO)n3cc(CCCSC)nn3)CC2)n1
[reply] 12.7

[ask] Which inhibition is reported for this molecule? C=CCn1c(SCC(=O)NC(=O)Cc2ccccc2)nc2ccccc2c1=O
[reply] -2.81

[ask] Which inhibition is reported for this molecule? CC(=O)Nc1ccc(S(=O)(=O)Oc2ccc(Br)cc2C(=S)N2CCOCC2)cc1
[reply] -23.8

[ask] Which inhibition is reported for this molecule? Cc1cc(OC(=O)c2ccccc2Cl)ccc1N1C(=O)CCC1=O
[reply] -5.62

[ask] Which inhibition is reported for this molecule? COC(=O)c1ccccc1NC(=O)C1CCN(C(=O)N2CCOc3ccccc32)CC1
[reply] -14.3

[ask] Which inhibition is reported for this molecule? CCN(C(=O)COC(=O)c1cc(NS(=O)(=O)c2ccc(Cl)c([N+](=O)[O-])c2)ccc1O)C1CCCCC1
[reply] -8.06

[ask] Which inhibition is reported for this molecule? O=C(Cn1cc(C(=O)C2CC2)c2ccccc21)Nc1ccccc1Cl
[reply] 14.6

[ask] Which inhibition is reported for this molecule? CCC(C)C(=O)Nc1ccccc1N1CCN(c2ccc(F)cc2)CC1 (configuration not stated)
[reply] -25.1

[ask] Which inhibition is reported for this molecule? Cc1ccc(Cc2cncc(O)c2)cc1S(=O)(=O)O
[reply] -9.54

[ask] Which inhibition is reported for this molecule? O=C(/C=C/c1cc2c(cc1Br)OCO2)NCc1ccc(Cl)cc1
[reply] -6.35

[ask] Which inhibition is reported for this molecule? CN(C)Cc1ccccc1C1(O)c2ccccc2CSc2ccccc21 (configuration not stated)
[reply] -3.19

[ask] Which inhibition is reported for this molecule? O=C(Nc1ccc(F)cc1F)N1CCCN(CCOc2ccccc2)CC1
[reply] -6.16

[ask] Which inhibition is reported for this molecule? O=C(NC1CCCCC1)N1CCc2[nH]c3ccccc3c2C1
[reply] -20.7

[ask] Which inhibition is reported for this molecule? COCCOC(=O)C1=C(C)NC(=O)NC1c1cc2c(cc1Br)OCO2 (configuration not stated)
[reply] -2.42
